Values compiled from patent US20160376333A1.

Target: T1, Epstein-Barr virus BHRF1 a.a. 1-161 with C-terminal avi-6his tag (Epstein-Barr virus)
T1 construct: also called EBV BHRF1; BHRF1-biotin
T1 chain: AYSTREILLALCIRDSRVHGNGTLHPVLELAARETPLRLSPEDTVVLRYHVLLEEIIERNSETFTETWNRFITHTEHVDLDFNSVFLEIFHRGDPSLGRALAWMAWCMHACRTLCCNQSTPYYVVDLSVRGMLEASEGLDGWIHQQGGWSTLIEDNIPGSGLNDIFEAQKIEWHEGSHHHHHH
Test: yeast display library, FACS sort at 100 nM BHRF1, deep sequencing
Assign Log2 enrichment ratio to each entry below.
Answers are plain numbers, in log2.

Observe how each entry below is paired with its result.
{"columns": ["binder", "assay-metric", "result-value"],
 "data": [
  ["Index 61 (designed binder) GEHLDELLLKLLWLAIQFAERAKLTIELWKLWGKITQSYNEWAEKAARDWIAAALMIIGDMFNHKQKAEEEAKKFAKKGLKRKEELEELLKKLEEFIKRAKKLIKETAQKHEEASKMG", "Log2 enrichment ratio", -2.79],
  ["Index 56 (designed binder) GESAEKWRERLREKAGYWAEYAFWLADEAEKRAKIYSASSERRAEWTMRWIAIALAAIGDVFNEGQKADEKFDELKKQNKRSDDDLDDYKDKFKEEVEKALRKLLKAGDKIADLAEQG", "Log2 enrichment ratio", -3.49],
  ["Index 37 (designed binder) GDFWLKAIEIAGGRMLERARESWYRALYFILMVKLFYPSDDLRRIFTLRWIAESLKLIGDAFNLFELARELLELYYKYGWITLEKALKALWILLKLEEIFSKASKDLGERLAEEIERG", "Log2 enrichment ratio", -3.13]
]}

// field: Log2 enrichment ratio; key: Index 50 (designed binder) GKRAEELREEAEERAKEAFKETEQKLREVEERSRQTLARDEELRKAALLWIAAALMGIGDLFNKKEKGKEALEKEEKNGKRRTERAEREKERLEKEVSREAQRFKKKGEEEEKKHKYG ; value = -3.79
